This collection of values is drawn from patent US9586961B2.

Biological target: JAK1 (Homo sapiens)
Construct: JAK1 (aa 850-1154) and TYK2 (aa 871-1187) are expressed with an N-terminally fused GST-tag; GST (N)
Sequence (P23458 850-1154): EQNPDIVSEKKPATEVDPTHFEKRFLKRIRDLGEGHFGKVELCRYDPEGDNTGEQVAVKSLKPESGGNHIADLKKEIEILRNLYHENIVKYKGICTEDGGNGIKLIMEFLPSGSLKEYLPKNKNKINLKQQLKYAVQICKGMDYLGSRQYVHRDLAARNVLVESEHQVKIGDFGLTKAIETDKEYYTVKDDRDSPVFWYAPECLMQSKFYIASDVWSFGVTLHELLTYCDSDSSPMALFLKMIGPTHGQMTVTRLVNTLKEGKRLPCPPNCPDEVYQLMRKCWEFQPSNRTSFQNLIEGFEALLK
Experiment: JAK1 kinase assay (HTRF, inhibition of phosphorylation of a synthetic peptide)
Conditions: catalytic domain aa 850-1154, GST-tag; 7 μM ATP (Km); read-out: JAK1 kinase inhibitory activity (EC50)
pEC50: −log10 of the molar value.
Parameter: pEC50. Scope: all listed entries.

Solved cases (5 shown):
NS(=O)(=O)c1ccc(NC(=O)C(=O)N2CCN(c3ncnc4[nH]ccc34)CC3(CC3)C2)cc1 :: > 7.00
CCCCC(=O)Nc1nc(N2CCCNC3(CC3)C2)c2cc[nH]c2n1 :: < 6.00
O=C(Cc1ccc(Cl)cc1)N1CCN(c2ncnc3[nH]ccc23)CC2(CC2)C1 :: > 7.00
NS(=O)(=O)c1ccc(C(=O)N2CCN(c3ncnc4[nH]ccc34)CC3(CC3)C2)cc1 :: > 7.00
O=C(c1ccsn1)N1CCCN(c2ncnc3[nH]ccc23)CC12CC2 :: > 7.00

Consider the compound shown here: Cc1cc(CC(=O)N2CCN(c3ncnc4[nH]ccc34)CC3(CC3)C2)no1 What is its recorded pEC50?
> 7.00

Consider the compound shown here: Cc1ncoc1C(=O)N1CCCN(c2ncnc3[nH]ccc23)CC12CC2 What is its recorded pEC50?
6.00 to 7.00

Consider the compound shown here: Cc1nnsc1C(=O)N1CCCN(c2ncnc3[nH]ccc23)CC12CC2 What is its recorded pEC50?
6.00 to 7.00

Consider the compound shown here: Cc1cnc(C(=O)N2CCN(c3ncnc4[nH]ccc34)CC3(CC3)C2)cn1 What is its recorded pEC50?
< 6.00

Consider the compound shown here: Cc1ccncc1C(=O)N1CCCN(c2ncnc3[nH]ccc23)CC12CC2 What is its recorded pEC50?
6.00 to 7.00

Consider the compound shown here: NS(=O)(=O)c1ccc(/C=C/C(=O)N2CCN(c3ncnc4[nH]ccc34)CC3(CC3)C2)cc1 What is its recorded pEC50?
> 7.00

Consider the compound shown here: O=C(c1cccc(Cl)c1)N1CCCN(c2ncnc3[nH]ccc23)CC12CC2 What is its recorded pEC50?
6.00 to 7.00

Consider the compound shown here: Cc1ccc(C(=O)N2CCN(c3ncnc4[nH]ccc34)CC3(CC3)C2)cc1S(N)(=O)=O What is its recorded pEC50?
> 7.00

Consider the compound shown here: O=C(c1ccncn1)N1CCCN(c2ncnc3[nH]ccc23)CC12CC2 What is its recorded pEC50?
> 7.00

Consider the compound shown here: CCCCS(=O)(=O)N1CCN(c2ncnc3[nH]ccc23)CC2(CC2)C1 What is its recorded pEC50?
6.00 to 7.00

Consider the compound shown here: O=C(Cc1ccccc1Cl)N1CCN(c2ncnc3[nH]ccc23)CC2(CC2)C1 What is its recorded pEC50?
6.00 to 7.00

Consider the compound shown here: N#C[C@@H]1CCCN1C(=O)N1CCN(c2ncnc3[nH]ccc23)CC2(CC2)C1 What is its recorded pEC50?
6.00 to 7.00
